Protocol Notes: Monkey pharmacokinetics
Format: in vivo
Test Settings: plasma; Male Cynomolgus Monkey; 1.0 mg/kg iv; solution; mean n=2; read-out: CLp
Parameter: clearance (mL/min/kg)
Could you give me the number in mL/min/kg? Just the number is fine.

# lookup: clearance of "Cc1ccc(N2CCN(C)CC2)cc1C(=O)NC1(c2cc(-c3cnn(C)c3)nc3ccccc23)CC1"
10.7

----------
Target: hCoV-229E_PLpro2 (Human coronavirus 229E)
Sequence (P0C6X1 1663-1914): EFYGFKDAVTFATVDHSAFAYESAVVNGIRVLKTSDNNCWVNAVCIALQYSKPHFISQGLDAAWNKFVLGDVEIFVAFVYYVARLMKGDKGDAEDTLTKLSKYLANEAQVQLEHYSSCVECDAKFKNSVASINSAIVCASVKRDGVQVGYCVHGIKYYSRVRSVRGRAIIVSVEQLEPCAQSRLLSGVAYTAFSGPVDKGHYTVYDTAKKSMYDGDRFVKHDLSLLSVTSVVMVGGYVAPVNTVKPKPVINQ
Protocol Notes: biochemical
Set-up: species or system 229E-CoV
Parameter: Ki

Request the reported Ki associated with Cc1ccc(N2CCN(C)CC2)cc1C(=O)NC1(c2cc(-c3cnn(C)c3)nc3ccccc23)CC1 [Compound 4]
> 10 µM

----------
Protocol Notes: in vivo
Design: species or system mouse
Test Settings: in vivo; mouse Balb c female; PO 150 mg/kg; suspension
Parameter: Cmax (ng/mL)
Quick note: give the figure in ng/mL, leave out the unit.

Tell me the measured Cmax of "Cc1ccc(N2CCN(C)CC2)cc1C(=O)NC1(c2cc(-c3cnn(C)c3)nc3ccccc23)CC1" , please.
12800

----------
Protocol Notes: in vivo
Set-up: species or system mouse
Test Settings: in vivo; Male C57BL6 mouse; 10 mg/kg po; solution; mean n=2
Parameter: half-life (h)
Output spec: scalar in h, unitless text.

Requested read-out: half-life. Entry: "Cc1ccc(N2CCN(C)CC2)cc1C(=O)NC1(c2cc(-c3cnn(C)c3)nc3ccccc23)CC1"
2.19

----------
Parameter: IC50

Could you share what IC50 was measured for "Cc1ccc(N2CCN(C)CC2)cc1C(=O)NC1(c2cc(-c3cnn(C)c3)nc3ccccc23)CC1" , tested on Human Caspase 2 (Homo sapiens)?
> 100 µM

----------
Target: human Nav1.5 sodium channel (Homo sapiens)
Construct: assay run at Metrion Biosciences Ltd
Sequence (Q14524 whole entry): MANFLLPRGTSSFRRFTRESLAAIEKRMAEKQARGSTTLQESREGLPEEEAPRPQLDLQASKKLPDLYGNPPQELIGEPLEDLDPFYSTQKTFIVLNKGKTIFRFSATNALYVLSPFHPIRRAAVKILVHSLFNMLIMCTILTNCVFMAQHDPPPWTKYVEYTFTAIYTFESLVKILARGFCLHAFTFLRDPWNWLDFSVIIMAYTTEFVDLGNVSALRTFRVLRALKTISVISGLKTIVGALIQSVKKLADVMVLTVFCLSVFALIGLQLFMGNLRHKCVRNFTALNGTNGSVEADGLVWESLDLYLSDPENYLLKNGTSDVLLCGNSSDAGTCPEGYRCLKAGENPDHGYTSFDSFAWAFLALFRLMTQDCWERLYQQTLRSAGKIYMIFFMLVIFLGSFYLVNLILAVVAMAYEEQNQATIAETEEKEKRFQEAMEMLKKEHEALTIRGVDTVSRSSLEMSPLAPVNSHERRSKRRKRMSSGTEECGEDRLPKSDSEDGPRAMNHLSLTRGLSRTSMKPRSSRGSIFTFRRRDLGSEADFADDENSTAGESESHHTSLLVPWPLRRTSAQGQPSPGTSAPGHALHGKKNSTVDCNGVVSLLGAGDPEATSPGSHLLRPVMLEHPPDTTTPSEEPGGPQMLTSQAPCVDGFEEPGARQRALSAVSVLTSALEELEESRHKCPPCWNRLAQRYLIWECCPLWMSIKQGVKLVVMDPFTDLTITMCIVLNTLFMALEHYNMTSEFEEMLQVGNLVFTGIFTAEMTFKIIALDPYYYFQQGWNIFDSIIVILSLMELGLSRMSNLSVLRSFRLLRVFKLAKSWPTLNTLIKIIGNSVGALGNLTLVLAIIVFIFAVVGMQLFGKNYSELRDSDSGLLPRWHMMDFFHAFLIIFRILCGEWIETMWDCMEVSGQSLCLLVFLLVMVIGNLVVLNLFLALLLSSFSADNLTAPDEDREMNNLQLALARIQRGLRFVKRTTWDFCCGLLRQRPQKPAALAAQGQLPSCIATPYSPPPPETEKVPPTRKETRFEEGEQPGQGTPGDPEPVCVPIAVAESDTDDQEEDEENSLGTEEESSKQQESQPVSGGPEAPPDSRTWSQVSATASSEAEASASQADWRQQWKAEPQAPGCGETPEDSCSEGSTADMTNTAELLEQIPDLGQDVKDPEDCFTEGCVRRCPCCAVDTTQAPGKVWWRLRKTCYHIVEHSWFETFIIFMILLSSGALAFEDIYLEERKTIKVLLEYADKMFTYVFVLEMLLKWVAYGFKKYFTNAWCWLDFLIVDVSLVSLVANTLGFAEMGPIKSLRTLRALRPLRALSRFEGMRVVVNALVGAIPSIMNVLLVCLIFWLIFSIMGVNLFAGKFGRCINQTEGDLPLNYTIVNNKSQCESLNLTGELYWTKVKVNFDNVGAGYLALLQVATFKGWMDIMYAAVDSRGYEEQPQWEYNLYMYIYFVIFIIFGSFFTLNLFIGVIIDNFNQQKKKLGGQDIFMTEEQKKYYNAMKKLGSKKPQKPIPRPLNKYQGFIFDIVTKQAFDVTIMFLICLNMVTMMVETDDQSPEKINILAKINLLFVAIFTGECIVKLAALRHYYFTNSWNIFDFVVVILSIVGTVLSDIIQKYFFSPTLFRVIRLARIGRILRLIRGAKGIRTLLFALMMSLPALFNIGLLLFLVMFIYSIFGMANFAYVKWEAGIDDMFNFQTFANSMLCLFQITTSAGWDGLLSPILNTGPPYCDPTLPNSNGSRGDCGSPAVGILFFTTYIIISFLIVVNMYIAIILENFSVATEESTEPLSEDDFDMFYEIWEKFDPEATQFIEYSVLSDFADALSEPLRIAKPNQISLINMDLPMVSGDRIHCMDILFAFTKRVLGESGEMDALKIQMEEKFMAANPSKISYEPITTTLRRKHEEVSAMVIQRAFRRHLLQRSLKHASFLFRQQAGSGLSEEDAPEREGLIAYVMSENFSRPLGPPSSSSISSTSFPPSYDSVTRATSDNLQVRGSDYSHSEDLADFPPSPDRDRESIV
Protocol Notes: hNav1.5 automated patch clamp
Test Settings: read-out: NaV IC50
Parameter: IC50

Give the measured IC50 of "Cc1ccc(N2CCN(C)CC2)cc1C(=O)NC1(c2cc(-c3cnn(C)c3)nc3ccccc23)CC1" .
> 100 µM

----------
Protocol Notes: Thermodynamic solubility
Format: physicochemical
Test Settings: pH 7.4, aqueous buffer, thermodynamic from solid
Parameter: solubility thermodynamic
Lab note: write values as number then unit, every time.

Please report the recorded solubility thermodynamic for "Cc1ccc(N2CCN(C)CC2)cc1C(=O)NC1(c2cc(-c3cnn(C)c3)nc3ccccc23)CC1" .
541 µM

----------
Protocol Notes: Dog pharmacokinetics
Format: in vivo, Beagle dog
Test Settings: male, Beagle, plasma, po, 3 mg/kg; dog (d); read-out: Oral F (%)
Parameter: bioavailability (%)
Give the value, in units of %, as a plain number.

Which value of bioavailability has been reported for "Cc1ccc(N2CCN(C)CC2)cc1C(=O)NC1(c2cc(-c3cnn(C)c3)nc3ccccc23)CC1" in the records?
41

----------
pIC50: −log10 of the molar value.
Parameter: pIC50

Item "Cc1ccc(N2CCN(C)CC2)cc1C(=O)NC1(c2cc(-c3cnn(C)c3)nc3ccccc23)CC1" with Human Cathepsin D (Homo sapiens, UniProt P07339) - pIC50?
< 4.00

----------
pIC50: −log10 of the molar value.
Parameter: pIC50

What measured pIC50 is associated with "Cc1ccc(N2CCN(C)CC2)cc1C(=O)NC1(c2cc(-c3cnn(C)c3)nc3ccccc23)CC1" on Human Cathepsin V (Homo sapiens, UniProt O60911)?
< 4.00

----------
Protocol Notes: in vivo
Parameters: species or system mouse
Test Settings: in vivo; mouse C57BL6 male; PO 30 mg/kg; solution
Parameter: Cmax
Remember to follow the number with its unit.

Could you share which Cmax value was measured for "Cc1ccc(N2CCN(C)CC2)cc1C(=O)NC1(c2cc(-c3cnn(C)c3)nc3ccccc23)CC1" ?
1880 ng/mL

----------
Target: UniProt:P10632
Sequence (P10632 1-490): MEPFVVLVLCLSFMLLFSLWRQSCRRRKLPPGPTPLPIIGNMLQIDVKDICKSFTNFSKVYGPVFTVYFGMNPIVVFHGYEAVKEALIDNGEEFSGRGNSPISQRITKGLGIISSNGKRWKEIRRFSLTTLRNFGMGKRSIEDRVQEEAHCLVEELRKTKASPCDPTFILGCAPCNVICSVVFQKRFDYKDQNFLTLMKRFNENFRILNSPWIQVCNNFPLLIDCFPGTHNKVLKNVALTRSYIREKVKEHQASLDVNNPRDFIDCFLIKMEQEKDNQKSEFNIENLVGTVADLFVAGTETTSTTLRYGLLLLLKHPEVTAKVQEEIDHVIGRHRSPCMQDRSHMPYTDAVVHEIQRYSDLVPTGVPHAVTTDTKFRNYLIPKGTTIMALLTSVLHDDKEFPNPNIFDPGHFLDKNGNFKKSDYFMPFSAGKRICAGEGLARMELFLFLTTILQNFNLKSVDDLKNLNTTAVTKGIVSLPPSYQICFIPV
Parameter: pIC50
// scale note: pIC50 = -log10(conc_M); give the bare number

GET /values?readout=pIC50&item= Cc1ccc(N2CCN(C)CC2)cc1C(=O)NC1(c2cc(-c3cnn(C)c3)nc3ccccc23)CC1 [Compound 4]
4.12

----------
Protocol Notes: Rat pharmacokinetics
Assay type: in vivo, Wistar-Hannover rat
Test Settings: Wistar-Hannover, plasma; Male Wistar Hanover Rat; 1.0 mg/kg iv; solution; mean n=2
Parameter: half-life (h)
The response must be a number in h with no trailing unit.

Entry under review: Cc1ccc(N2CCN(C)CC2)cc1C(=O)NC1(c2cc(-c3cnn(C)c3)nc3ccccc23)CC1 [Compound 4] . Reported half-life?
3.59

----------
Protocol Notes: in vivo
Parameters: species or system mouse
Test Settings: male, C57BL6, mouse, in vivo, iv, 1 mg/kg, mouse C57BL6 male; IV 1 mg/kg; solution; read-out: Vdss
Parameter: Vd (L/kg)
Give just the number in L/kg; leave the unit off.

State the recorded Vd for this entry: Cc1ccc(N2CCN(C)CC2)cc1C(=O)NC1(c2cc(-c3cnn(C)c3)nc3ccccc23)CC1 [Compound 4]
2.13

----------
Target: Human Cathepsin L (Homo sapiens, UniProt P07711)
Sequence (P07711 114-333): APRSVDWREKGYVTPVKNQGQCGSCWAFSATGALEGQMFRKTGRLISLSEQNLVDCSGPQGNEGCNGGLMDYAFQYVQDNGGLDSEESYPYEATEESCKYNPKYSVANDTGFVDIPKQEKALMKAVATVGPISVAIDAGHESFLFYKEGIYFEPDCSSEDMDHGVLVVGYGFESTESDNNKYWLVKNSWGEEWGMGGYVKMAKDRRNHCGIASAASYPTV
Parameter: IC50

# IC50 lookup, item "Cc1ccc(N2CCN(C)CC2)cc1C(=O)NC1(c2cc(-c3cnn(C)c3)nc3ccccc23)CC1"
> 100 µM

----------
pIC50: −log10 of the molar value.
Parameter: pIC50

Under CYP3A4 (Homo sapiens, UniProt P08684): pIC50 value of Cc1ccc(N2CCN(C)CC2)cc1C(=O)NC1(c2cc(-c3cnn(C)c3)nc3ccccc23)CC1 [Compound 4] ?
< 4.52

----------
Protocol Notes: in vitro
Test Settings: mouse, plasma
Parameter: fraction unbound

Which fraction unbound value belongs to "Cc1ccc(N2CCN(C)CC2)cc1C(=O)NC1(c2cc(-c3cnn(C)c3)nc3ccccc23)CC1" ?
0.093

----------
Protocol Notes: Rat pharmacokinetics
Format: in vivo, Wistar-Hannover rat
Test Settings: Wistar-Hannover, plasma; Male Wistar Hanover Rat; 10 mg/kg po; solution; mean n=2
Description: Figure S1. Setting Up the Collaboration Workflow and Operations Preclinical Pharmacokinetics Studies […] Mouse pharmacokinetic studies were done at BioDuro Pharmaceutical Product Development Inc. (Shanghai, PRC); male C57BL6 mice were purchased from Vital River (Beijing, China) and were typically 7-9 weeks of age at the time of dosing. […] Animals were monitored for pain or distress throughout the study, with at least daily monitoring during normal husbandry prior to study start. […]
Parameter: Cmax (ng/mL)
Answer format: numeric, ng/mL implied, no suffix.

Request the reported Cmax associated with "Cc1ccc(N2CCN(C)CC2)cc1C(=O)NC1(c2cc(-c3cnn(C)c3)nc3ccccc23)CC1"
435

----------
Protocol Notes: in vivo
Set-up: species or system mouse
Test Settings: in vivo; Male C57BL6 mouse; 10 mg/kg po; solution; mean n=2; read-out: Tmax
Parameter: Tmax (h)
Field: numeric (h). Do not append units.

Please look up its Tmax: Cc1ccc(N2CCN(C)CC2)cc1C(=O)NC1(c2cc(-c3cnn(C)c3)nc3ccccc23)CC1 [Compound 4]
2

----------
Protocol Notes: in vivo
Parameters: species or system mouse
Test Settings: male, C57BL6, in vivo, po, 10 mg/kg; mouse (m); read-out: Oral F (%)
Parameter: bioavailability (%)
Lab book: enter the figure in %, no units written.

Would you kindly share the measured bioavailability for "Cc1ccc(N2CCN(C)CC2)cc1C(=O)NC1(c2cc(-c3cnn(C)c3)nc3ccccc23)CC1" ?
53.2

----------
For each record, write down the corresponding Papp.
Protocol Notes: RRCK passive permeability
Test Settings: dog, MDCK
Write the answer as a number in ×10⁻⁶ cm/s, unit excluded.

Could you share which Papp value was measured for Cc1ccc(N2CCN(C)CC2)cc1C(=O)N[C@H](C)c1cc(-c2cnn(C)c2)nc2ccccc12 [Compound 3] ?
41.9

State the recorded Papp for this entry: Cc1ccccc1C(=O)N[C@H](C)c1cc(-c2cnn(C)c2)nc2ccccc12 [Compound 2]
42

Entry Cc1ccc(N2CCN(C)CC2)cc1C(=O)NC1(c2cc(-c3cnn(C)c3)nc3ccccc23)CC1 [Compound 4] : reported Papp = ?
31.4
